Each record here notes measured %Inh.
test system: RIPK2; details: concentration: 1 μM, replicates: in singlicate; n = 1;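 note: KINOMEscan kinase panel screen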
Kindly provide the numeric value in % only, without the unit symbol.

Some entries whose results are on file:
Structure notation	%Inh [%]
Cc1cccc(-c2nc(Nc3cccc(C(N)=O)c3)c3ccccc3n2)n1	0
Cn1ccc2ncnc(Oc3ccc(Nc4nc5ccccc5[nH]4)cc3)c21	0
Cl.Oc1ccc(-c2nc(-c3ccccc3)[nH]c2-c2ccncc2)cc1	22
CC(=O)Nc1nc2cnc(Nc3cc(NC(=O)c4cccc(CCC#N)c4)ccc3C)nc2s1	0
Fc1cc(Cl)ccc1Nc1ccnc2cc(-c3ccc(CN4CCCCC4)o3)ccc12	61
COC(=O)c1c(-c2ccccc2)c2cc(C(=O)O)ccc2c(=O)n1Cc1ccccc1	0
Cl.NC(=O)c1cccc(Nc2nccc(Nc3ccc(Oc4cccc(Cl)c4)c(Cl)c3)n2)c1	95.8
Cn1cncc1-c1ccc2ncnc(Nc3ccc(OCc4ccccc4)cc3)c2c1	93.1

Provide measured %Inh value, entry: COc1ccc2nc(-c3cccc(C)n3)nc(Nc3ccncc3)c2c1
33

Give %Inh for Nc1nc(-c2nccs2)c(-c2ccnc3ccccc23)s1
14

State its %Inh for this molecule: Cc1cccc(-c2nc(Nc3ccncc3)c3ccccc3n2)n1
71

====

test system: CSNK1G2; settings: concentration: 1 μM, replicates: in singlicate; n = 1
Experimental endpoint: %Inh (%)
Report the figure in % without appending any unit label.

Study these solved cases before continuing.
Compound	Experimental endpoint	Readout number
Cl.NC(=O)c1cccc(Nc2nccc(Nc3ccc(Oc4cccc(Cl)c4)c(Cl)c3)n2)c1	%Inh	0
O=C1NC(=O)C(N2CCc3ccccc32)=C1c1ccccc1Cl	%Inh	9
CC1=C(C(=O)Nc2cc3cn[nH]c3cc2F)C(c2ccc(C(F)(F)F)cc2)CC(=O)N1 (centres unmarked)	%Inh	0
Cc1csc(-c2nc(Nc3ccncc3)c3ccccc3n2)n1	%Inh	9

Below: the item to evaluate.
For CSNK1G2, give %Inh of the listed compound: COc1cccc(-c2cc(-c3c[nH]nc3-c3ccccn3)ccn2)c1
3

====

test system: CDK8; settings: concentration: 1 μM, replicates: in singlicate; n = 1
Each entry below carries its recorded %Inh.
Give just the number in %; leave the unit off.

Retrieve %Inh on CDK8; query CCn1c(-c2ccccn2)nc2cnccc21 [SB-736398]
39

# assay system CDK8: give %Inh of O=C(Nc1ccccc1)Nc1cccc(Oc2ccc3nccn3n2)c1
76

Provide %Inh, recorded with CDK8, of Cc1ccc(NC(=O)Nc2cc(C(C)(C)C)nn2-c2ccccc2)cc1 [GSK1014915]
58

// fetch %Inh for O=c1cc(N2CCOCC2)nc2n(Cc3cccc(Cl)c3Cl)ccn12 [GSK2286295] ; system: CDK8
0

====

Catalogue of %Inh values
system: MST2; construct: gene STK3; conditions: concentration: 1 μM, replicates: in singlicate; n = 1
Give the quantity in %, number only.

# example entries with known answers
Molecule	%Inh, %
CCn1c(-c2ccccn2)nc2cnccc21	0
Cc1c(O)cccc1Nc1ccnc2ccc(C(F)(F)F)cc12.Cl	0
Cl.O=C(Nc1cccc(-c2nn3ncccc3c2-c2ccnc(Nc3cccnc3)n2)c1)c1c(F)cccc1F	19
Cc1cccc(-c2nc(Nc3ccc4[nH]ncc4c3)c3ccccc3n2)n1	0
O=C(Nc1ccccc1)Nc1cccc(Oc2ccc3nccn3n2)c1	0

Return value of %Inh for input COc1cccc(-c2cc(-c3c[nH]nc3-c3ccccn3)ccn2)c1 , no commentary.
0

Tell me measured %Inh for COc1ccc(CNC(=O)NC2CCN(c3ccnc(Nc4cc(OC)c(OC)c(OC)c4)n3)C2)cc1 (stereo not shown) please.
1

Provide one value: measured %Inh of CC1=C(C(=O)Nc2cc3cn[nH]c3cc2F)C(c2ccc(C(F)(F)F)cc2)CC(=O)N1 (stereo not shown)
0

Give a short answer stating reported %Inh for Cc1csc(-c2nc(Nc3ccncc3)c3ccccc3n2)n1 .
0

Name the recorded %Inh of the molecule listed here: Fc1cc(Cl)ccc1Nc1ccnc2cc(I)ccc12
9

Dear colleague, please send me the reported %Inh for CS(=O)(=O)c1ccc(-c2c(-c3ncn[nH]3)sc(N3CCOCC3)c2C#N)cc1 when you can.
13

Please report the measured %Inh for O=S(=O)(c1ccc(-c2ccnc3[nH]ccc23)cc1)N1CCCC1
4

Input Nc1ncnc2[nH]c(-c3ccccc3)nc12 , output reported %Inh.
0

Answer with reported %Inh of CC(C)(C)c1ccc(C(=O)Nc2cn3cc(-c4cccnc4)ccc3n2)cc1
42

Given Cc1ccc(-c2cc(-c3c[nH]nc3-c3ccccn3)ccn2)cc1 , respond with its %Inh.
3

====

Measured %Inh, listed per entry.
tested on: STK35; conditions: concentration: 1 μM, replicates: in singlicate; n = 1
Expressed in %, but write only the number.

Compound	%Inh / %
O=C(O)COc1ncnc2cc(-c3ccc4[nH]ncc4c3)sc12	0
COc1cccc(NC(=O)NC2CCN(c3ccnc(Nc4ccc(F)cc4)n3)C2)c1 (stereo not drawn)	0
Cc1ccc(-c2cc(-c3c[nH]nc3-c3ccccn3)ccn2)cc1	0

Dear colleague, please send me the reported %Inh for Nc1nc(-c2nccs2)c(-c2ccnc3ccccc23)s1 when you can.
0

Give me measured %Inh, please, for this compound: COc1cccc(-c2cc(-c3c[nH]nc3-c3ccccn3)ccn2)c1
0

For the compound COc1cc2ncn(-c3cc(OCC4CCCO4)c(C(N)=O)s3)c2cc1OC (stereo not drawn) , give its measured %Inh value.
90

Let me know recorded %Inh for Cc1cccc(-c2nc(Nc3ccc4[nH]ncc4c3)c3ccccc3n2)n1 , thanks.
0

Give the reported value of %Inh for this record: COc1cc2nccc(Nc3ccc(NC(=O)c4ccc(C)cc4)c(O)c3)c2cc1OC.Cl
0

Output measured %Inh for this item: Cn1cncc1-c1ccc2ncnc(Nc3ccc(OCc4ccccc4)cc3)c2c1
10

====

tested on: MLCK; construct: gene MYLK3; details: concentration: 1 μM, replicates: in singlicate; n = 1
Here the recorded %Inh is given for each entry.
Write the number in % without appending the unit.

Compound	System tested	Experimental endpoint	Readout number
COC(=O)c1c(-c2ccccc2)c2cc(C(=O)O)ccc2c(=O)n1Cc1ccccc1	MLCK	%Inh	0
Cl.Oc1ccc(-c2nc(-c3ccccc3)[nH]c2-c2ccncc2)cc1	MLCK	%Inh	14
Cc1cccc(-c2nc(Nc3cccc(C(N)=O)c3)c3ccccc3n2)n1	MLCK	%Inh	0

Answer with the recorded %Inh of Cc1cccc(-c2nc(C)cc(Nc3ccncc3)n2)n1 only.
0

Give recorded %Inh. COc1cc2nccc(Nc3ccc(NC(=O)c4ccc(C)cc4)c(O)c3)c2cc1OC.Cl
0

Entry COc1cccc(NC(=O)NC2CCN(c3ccnc(Nc4ccc(F)cc4)n3)C2)c1 (stereo not drawn) needs its %Inh filled in; supply it.
0

====

system: WNK4; conditions: concentration: 1 μM, replicates: in singlicate; n = 1
// NB: equality with 4% counts as rule not met; only %Inh strictly below is rule met

Some entries whose results are on file:
Compound	Class label
CCn1c(-c2ccccn2)nc2cnccc21	rule not met
Cn1ccc2ncnc(Oc3ccc(NC(=O)Nc4ccccc4)cc3)c21	rule met
COC(=O)c1c(-c2ccccc2)c2cc(C(=O)O)ccc2c(=O)n1Cc1ccccc1	rule met
COc1ccccc1CNC(=O)c1cc(C(=O)c2ccccc2C)c[nH]1	rule not met

Could you please tell me whether %Inh recorded for Nc1ncnc2[nH]c(-c3ccccc3)nc12 is less than 4%?
rule not met

Lab note: confirm whether the reported %Inh for this compound is below 4%, equality not counting. compound: COc1cc(Nc2nccc(N3CCC(NC(=O)Nc4cc(C)ccc4C)C3)n2)cc(OC)c1OC (stereo not shown)
rule not met

====

Catalogue of compounds with associated %Inh
test system: CLK3; details: concentration: 1 μM, replicates: in singlicate; n = 1
Write the answer as a number in %, unit excluded.

For Cc1cccc(-c2nc(C)cc(Nc3ccncc3)n2)n1 , write its %Inh.
15

====

Recorded %Inh for the following compounds
tested on: MST4; conditions: concentration: 1 μM, replicates: in singlicate; n = 1
Your answer is read as %, so omit the unit and give the number.

Structure notation	System tested	Readout number
Fc1cccc(COc2nnc(-c3ccc4c(c3)CCO4)o2)c1	MST4	0
Cc1cccc(-c2cc(Nc3ccncc3)c3ccccc3n2)n1	MST4	0
Cc1cc(N2Cc3ccccc3C2)nc(Nc2ccc(S(=O)(=O)N3CCOCC3)cc2)n1.Cl	MST4	0
Cc1cccc(-c2nc(-c3ccc(S(C)(=O)=O)cc3)sc2-c2ccnc(NCCc3ccccc3)c2)c1	MST4	32
COc1ccccc1CNC(=O)c1cc(C(=O)c2ccccc2C)c[nH]1	MST4	0
Cc1cccc(-c2nc(Nc3ccc4[nH]ncc4c3)c3ccccc3n2)n1	MST4	27

Name the value of %Inh reported for Cl.c1ccc(-c2n[nH]cc2-c2ccnc(-c3ccc(CN4CCOCC4)cc3)c2)nc1 when tested on MST4.
0

Under MST4, report %Inh for CN(C)CCN(C)C(=O)c1cc(-c2ccncc2)c(-c2ccc(Cl)c(O)c2)o1.Cl.Cl
0

Supply %Inh measured with MST4 for Cn1ccc2ncnc(Oc3cccc(C(=O)Nc4ccccc4)c3)c21 .
7
